Test system: HEK-293T
method summary: Multiplex assay against HEK293T
Format: toxicity, cell-based
test context: human, 48 h, 10 µM, compound concentration 10 uM, replicate 1
readout label: Population Healthy Nuclei (%)
All answers are understood in %, so give the number only.

Query block: In one line, give reported Population Healthy Nuclei (%) of the entry CCn1c(-c2nonc2N)nc2cnc(Oc3cccc(NC(=O)c4ccc(OCCN5CCOCC5)cc4)c3)cc21 [GSK-269962A] .
Result block: 40

Query block: In one line, give reported Population Healthy Nuclei (%) of the entry "COc1cc(N2CCC(N(C)C)CC2)ccc1Nc1ncc(Cl)c(Nc2ccccc2P(C)(C)=O)n1" .
Result block: 34

Query block: In one line, give reported Population Healthy Nuclei (%) of the entry CCC(=O)O[C@]1(C(=O)SCF)[C@H](C)C[C@H]2[C@@H]3C[C@H](F)C4=CC(=O)C=C[C@]4(C)[C@@]3(F)[C@@H](O)C[C@@]21C [FLUTICASONE PROPIONATE] .
Result block: 51

Query block: In one line, give reported Population Healthy Nuclei (%) of the entry "Cl.Cl.Nc1ncnc2c1c(-c1cccc(OCc3ccccc3)c1)cn2[C@H]1C[C@@H](CN2CCC2)C1" .
Result block: 1

* * *

Hi there, I'd appreciate the recorded Population Hoechst High Intensity Objects (%) for every entry that follows.
System: Fibroblast
method summary: Multiplex assay against human fibroblast
Assay type: toxicity, cell-based
test context: 12 h, 10 µM, compound concentration 10 uM, replicate 2
All answers are understood in %, so give the number only.

Query block: # assay system Fibroblast: give Population Hoechst High Intensity Objects (%) of N#Cc1cnc(Nc2cc(NC[C@H]3CNCCO3)c(C(F)(F)F)cn2)cn1 [SRA-737]
Result block: 34

Query block: # assay system Fibroblast: give Population Hoechst High Intensity Objects (%) of CCC(=O)O[C@]1(C(=O)SCF)[C@H](C)C[C@H]2[C@@H]3C[C@H](F)C4=CC(=O)C=C[C@]4(C)[C@@]3(F)[C@@H](O)C[C@@]21C [FLUTICASONE PROPIONATE]
Result block: 8

Query block: # assay system Fibroblast: give Population Hoechst High Intensity Objects (%) of "CC(=O)c1cc(-c2cc(C(=O)NC3CC3)ccc2C)c2ncccn12"
Result block: 4

Query block: # assay system Fibroblast: give Population Hoechst High Intensity Objects (%) of "c1ccc2oc(-c3csc(C4CCN(Cc5nc6ncccc6[nH]5)CC4)n3)cc2c1"
Result block: 35

Query block: # assay system Fibroblast: give Population Hoechst High Intensity Objects (%) of CN(C)C/C=C/C(=O)Nc1cc2c(Nc3ccc(F)c(Cl)c3)ncnc2cc1O[C@H]1CCOC1.O=C(O)/C=C\C(=O)O.O=C(O)/C=C\C(=O)O [AFATINIB DIMALEATE]
Result block: 34

Query block: # assay system Fibroblast: give Population Hoechst High Intensity Objects (%) of CCc1cc2c(cc1CC)CC(NC[C@H](O)c1ccc(O)c3[nH]c(=O)ccc13)C2 [INDACATEROL]
Result block: 6

Query block: # assay system Fibroblast: give Population Hoechst High Intensity Objects (%) of CCOc1cc2ncc(C#N)c(Nc3ccc(OCc4cccc(F)c4)c(Cl)c3)c2cc1NC(=O)/C=C/CN(C)C [HKI-357]
Result block: 46

* * *

Hi there, I'd appreciate the recorded Population Hoechst High Intensity Objects (%) for every entry that follows.
System: HEK-293T
method summary: Multiplex assay against HEK293T
Type: toxicity, cell-based
test context: human, 48 h, 1 µM, compound concentration 1 uM, replicate 2
All answers are understood in %, so give the number only.

Query block: In one line, give reported Population Hoechst High Intensity Objects (%) of the entry "Nc1nc2c(c(N3CCNCC3)n1)CCC1=C2[C@@H]2CCCC[C@@H]2O1" .
Result block: 4

Query block: In one line, give reported Population Hoechst High Intensity Objects (%) of the entry CCn1c(-c2nonc2N)nc2cnc(Oc3cccc(NC(=O)c4ccc(OCCN5CCOCC5)cc4)c3)cc21 [GSK-269962A] .
Result block: 3

Query block: In one line, give reported Population Hoechst High Intensity Objects (%) of the entry "O=C(O)c1ccc2cc(-c3ccc(O)c(C45CC6CC(CC(C6)C4)C5)c3)ccc2c1" .
Result block: 2

Query block: In one line, give reported Population Hoechst High Intensity Objects (%) of the entry "CNc1oc(-c2cccc3ccccc23)nc1C#N" .
Result block: 14

Query block: In one line, give reported Population Hoechst High Intensity Objects (%) of the entry "Nc1ccc(C(=O)Nc2cccc(-c3nc(N4CCOCC4)c4oc5ncccc5c4n3)c2)cn1" .
Result block: 8

Query block: In one line, give reported Population Hoechst High Intensity Objects (%) of the entry "Cl.Cl.Nc1ncnc2c1c(-c1cccc(OCc3ccccc3)c1)cn2[C@H]1C[C@@H](CN2CCC2)C1" .
Result block: 11

Query block: In one line, give reported Population Hoechst High Intensity Objects (%) of the entry "CCc1cc2c(cc1CC)CC(NC[C@H](O)c1ccc(O)c3[nH]c(=O)ccc13)C2" .
Result block: 7

* * *

Test system: HEK-293T
method summary: Multiplex assay against HEK293T
Format: toxicity, cell-based
test context: human, 24 h, 1 µM, compound concentration 1 uM, replicate 1
readout label: Population Mitochondria Different-Phenotype (%)
All answers are understood in %, so give the number only.

Query block: # assay system HEK-293T: give Population Mitochondria Different-Phenotype (%) of "Cc1cc2c(cc1N1C(=O)c3cccc4c(CCCO)ccc(c34)C1=O)n(C)c(=O)n2C"
Result block: 61

Query block: # assay system HEK-293T: give Population Mitochondria Different-Phenotype (%) of "CNc1oc(-c2cccc3ccccc23)nc1C#N"
Result block: 41

Query block: # assay system HEK-293T: give Population Mitochondria Different-Phenotype (%) of "Nc1ccc(C(=O)Nc2cccc(-c3nc(N4CCOCC4)c4oc5ncccc5c4n3)c2)cn1"
Result block: 95

Query block: # assay system HEK-293T: give Population Mitochondria Different-Phenotype (%) of CC(C)Oc1ccc(C(=O)N[C@H](CNC(=O)CN(C)C)Cc2ccc(-c3cn4cccc([C@H](C)O)c4n3)cc2)cc1Cl [GSK-923295A]
Result block: 11

Query block: # assay system HEK-293T: give Population Mitochondria Different-Phenotype (%) of "CNC(=O)c1cc(Oc2ccc(NC(=O)Nc3cc(C(C)(C)C)nn3-c3ccc4ncccc4c3)c(F)c2)ccn1"
Result block: 2

Query block: # assay system HEK-293T: give Population Mitochondria Different-Phenotype (%) of "CCCn1c(=O)c2[nH]c(C34CC5CC(CC3C5)C4)nc2n(CCC)c1=O"
Result block: 77

Query block: # assay system HEK-293T: give Population Mitochondria Different-Phenotype (%) of "O=C(O)c1ccc2cc(-c3ccc(O)c(C45CC6CC(CC(C6)C4)C5)c3)ccc2c1"
Result block: 44

Query block: # assay system HEK-293T: give Population Mitochondria Different-Phenotype (%) of "CN(C)CCOc1ccc(-c2nc(-c3ccncc3)c(-c3ccc4c(c3)CC/C4=N\O)[nH]2)cc1"
Result block: 14

* * *

Tested on: U2OS
method summary: Multiplex assay against U2OS
Type: toxicity, cell-based
test context: human, 12 h, 1 µM, compound concentration 1 uM, replicate 1
In plain terms, low Population Membrane Permeable-Phenotype (%), meaning strictly below 9%, gives label 1, and everything else gives label 0.

Query block: Does this molecule meet the criterion Population Membrane Permeable-Phenotype (%) < 9%? "CC(C)N1CCC(C)(C)c2cc(C#Cc3ccc(C(=O)O)cc3)ccc21"
Result block: label 1

Query block: Does this molecule meet the criterion Population Membrane Permeable-Phenotype (%) < 9%? "Cc1cc2c(cc1N1C(=O)c3cccc4c(CCCO)ccc(c34)C1=O)n(C)c(=O)n2C"
Result block: label 1

Query block: Does this molecule meet the criterion Population Membrane Permeable-Phenotype (%) < 9%? "CNc1oc(-c2cccc3ccccc23)nc1C#N"
Result block: label 0

Query block: Does this molecule meet the criterion Population Membrane Permeable-Phenotype (%) < 9%? O=C(O)c1ccc2cc(-c3ccc(O)c(C45CC6CC(CC(C6)C4)C5)c3)ccc2c1 [O-DEMETHYLATED ADAPALENE]
Result block: label 0

* * *

Test system: Fibroblast
method summary: Multiplex assay against human fibroblast
Format: toxicity, cell-based
test context: 24 h, 1 µM, compound concentration 1 uM, replicate 1
readout label: Population Tubulin-Different-Phenotype (%)
All answers are understood in %, so give the number only.

Query block: In one line, give reported Population Tubulin-Different-Phenotype (%) of the entry "COc1cc(N2CCC(N(C)C)CC2)ccc1Nc1ncc(Cl)c(Nc2ccccc2P(C)(C)=O)n1" .
Result block: 4

Query block: In one line, give reported Population Tubulin-Different-Phenotype (%) of the entry Cc1nc(Cc2cccc(C(F)(F)F)c2)sc1-c1ccc(C(N)=O)nc1 [TP-024n] .
Result block: 29

Query block: In one line, give reported Population Tubulin-Different-Phenotype (%) of the entry CC(C)Oc1ccc(C(=O)N[C@H](CNC(=O)CN(C)C)Cc2ccc(-c3cn4cccc([C@H](C)O)c4n3)cc2)cc1Cl [GSK-923295A] .
Result block: 10

Query block: In one line, give reported Population Tubulin-Different-Phenotype (%) of the entry "CCOc1cc(N2CCC(O)CC2)ccc1Nc1ncc2c(n1)N(C1CCCC1)CCC(=O)N2C" .
Result block: 7

Query block: In one line, give reported Population Tubulin-Different-Phenotype (%) of the entry CCOc1cc2ncc(C#N)c(Nc3ccc(OCc4cccc(F)c4)c(Cl)c3)c2cc1NC(=O)/C=C/CN(C)C [HKI-357] .
Result block: 5

Query block: In one line, give reported Population Tubulin-Different-Phenotype (%) of the entry O=C(O)c1ccc2cc(-c3ccc(O)c(C45CC6CC(CC(C6)C4)C5)c3)ccc2c1 [O-DEMETHYLATED ADAPALENE] .
Result block: 45

Query block: In one line, give reported Population Tubulin-Different-Phenotype (%) of the entry "Nc1ccc(C(=O)Nc2cccc(-c3nc(N4CCOCC4)c4oc5ncccc5c4n3)c2)cn1" .
Result block: 64

Query block: In one line, give reported Population Tubulin-Different-Phenotype (%) of the entry CC(C)(C)c1cnc(CSc2cnc(NC(=O)C3CCNCC3)s2)o1 [BMS-387032] .
Result block: 10

Query block: In one line, give reported Population Tubulin-Different-Phenotype (%) of the entry CCc1cc2c(cc1CC)CC(NC[C@H](O)c1ccc(O)c3[nH]c(=O)ccc13)C2 [INDACATEROL] .
Result block: 36

Query block: In one line, give reported Population Tubulin-Different-Phenotype (%) of the entry "Cc1cn(-c2cc(NC(=O)c3ccc4c(c3)CN(c3cncnc3)C[C@@H]4C)cc(C(F)(F)F)c2)cn1" .
Result block: 7

Query block: In one line, give reported Population Tubulin-Different-Phenotype (%) of the entry "CC(=O)c1cc(-c2cc(C(=O)NC3CC3)ccc2C)c2ncccn12" .
Result block: 43

Query block: In one line, give reported Population Tubulin-Different-Phenotype (%) of the entry "Cl.Cl.Nc1ncnc2c1c(-c1cccc(OCc3ccccc3)c1)cn2[C@H]1C[C@@H](CN2CCC2)C1" .
Result block: 53

Query block: In one line, give reported Population Tubulin-Different-Phenotype (%) of the entry CN(C)CCOc1ccc(-c2nc(-c3ccncc3)c(-c3ccc4c(c3)CC/C4=N\O)[nH]2)cc1 [SB590885] .
Result block: 5

Query block: In one line, give reported Population Tubulin-Different-Phenotype (%) of the entry CCC(=O)O[C@]1(C(=O)SCF)[C@H](C)C[C@H]2[C@@H]3C[C@H](F)C4=CC(=O)C=C[C@]4(C)[C@@]3(F)[C@@H](O)C[C@@]21C [FLUTICASONE PROPIONATE] .
Result block: 34

Query block: In one line, give reported Population Tubulin-Different-Phenotype (%) of the entry "CNc1oc(-c2cccc3ccccc23)nc1C#N" .
Result block: 3

Query block: In one line, give reported Population Tubulin-Different-Phenotype (%) of the entry "COc1cc2c(Nc3ccc(NC(=O)c4ccccc4)cc3)ncnc2cc1OCCCN1CCOCC1" .
Result block: 59

Query block: In one line, give reported Population Tubulin-Different-Phenotype (%) of the entry N#Cc1cnc(Nc2cc(NC[C@H]3CNCCO3)c(C(F)(F)F)cn2)cn1 [SRA-737] .
Result block: 1

Query block: In one line, give reported Population Tubulin-Different-Phenotype (%) of the entry "Nc1nc2c(c(N3CCNCC3)n1)CCC1=C2[C@@H]2CCCC[C@@H]2O1" .
Result block: 47

Query block: In one line, give reported Population Tubulin-Different-Phenotype (%) of the entry "CC(C)N1CCC(C)(C)c2cc(C#Cc3ccc(C(=O)O)cc3)ccc21" .
Result block: 38

Query block: In one line, give reported Population Tubulin-Different-Phenotype (%) of the entry "COc1ccc(NS(=O)(=O)c2sc3ccc(Cl)cc3c2C)cc1N1CCNCC1.Cl" .
Result block: 42

Query block: In one line, give reported Population Tubulin-Different-Phenotype (%) of the entry CCn1c(-c2nonc2N)nc2cnc(Oc3cccc(NC(=O)c4ccc(OCCN5CCOCC5)cc4)c3)cc21 [GSK-269962A] .
Result block: 41

Query block: In one line, give reported Population Tubulin-Different-Phenotype (%) of the entry CCCn1c(=O)c2[nH]c(C34CC5CC(CC3C5)C4)nc2n(CCC)c1=O [ROLOFYLLINE] .
Result block: 73

Query block: In one line, give reported Population Tubulin-Different-Phenotype (%) of the entry "c1ccc2oc(-c3csc(C4CCN(Cc5nc6ncccc6[nH]5)CC4)n3)cc2c1" .
Result block: 17

Query block: In one line, give reported Population Tubulin-Different-Phenotype (%) of the entry CNC(=O)c1nn(C)c2c1C(C)(C)Cc1cnc(Nc3ccc(N4CCN(C)CC4)cc3)nc1-2 [MILCICLIB] .
Result block: 33

Query block: In one line, give reported Population Tubulin-Different-Phenotype (%) of the entry CN(C)C/C=C/C(=O)Nc1cc2c(Nc3ccc(F)c(Cl)c3)ncnc2cc1O[C@H]1CCOC1.O=C(O)/C=C\C(=O)O.O=C(O)/C=C\C(=O)O [AFATINIB DIMALEATE] .
Result block: 13

Query block: In one line, give reported Population Tubulin-Different-Phenotype (%) of the entry "COc1cc2c(NC3CCN(C(C)C)CC3)nc(N3CCC(F)(F)CC3)nc2cc1OCCCN1CCCC1" .
Result block: 34

Query block: In one line, give reported Population Tubulin-Different-Phenotype (%) of the entry CNC(=O)c1cc(Oc2ccc(NC(=O)Nc3cc(C(C)(C)C)nn3-c3ccc4ncccc4c3)c(F)c2)ccn1 [REBASTINIB] .
Result block: 3

Query block: In one line, give reported Population Tubulin-Different-Phenotype (%) of the entry "Cl.Cl.NC1(c2ccc(-c3nc4ccn5c(=O)[nH]nc5c4cc3-c3ccccc3)cc2)CCC1" .
Result block: 9

Query block: In one line, give reported Population Tubulin-Different-Phenotype (%) of the entry "Cc1cc2c(cc1N1C(=O)c3cccc4c(CCCO)ccc(c34)C1=O)n(C)c(=O)n2C" .
Result block: 41
